# assayExplanation: Hemolytic activity against human red blood cells at 100 uM relative to control
# Type: toxicity, cell-based, Erythrocyte
# setupConditions: red blood cells (erythrocytes), read-out: Activity
Positions of bridges follow the written chain, without caps; N, C: chain ends. Non-standard residues stand in square brackets, D forms with d. Residues, ends and D or L forms follow the SMILES beside them. R5 = C=CCCC[C@@](C)(N)C(=O)O
readoutName: hemolysis at 100 µM (%)
All answers are understood in %, so give the number only.

Sample CC[C@H](C)[C@H](NC(C)=O)C(=O)N[C@H](C(=O)N[C@@H](CCC(=O)O)C(=O)N[C@@H](CC(C)C)C(=O)N[C@@H](CCC(=O)O)C(=O)N[C@]1(C)CCC/C=C\CCC[C@](C)(C(=O)N[C@@H](CC(C)C)C(=O)N[C@@H](CCCCN)C(=O)N[C@@H](CC(=O)O)C(=O)N[C@@H](CCC(=O)O)C(=O)N[C@@H](CCCCN)C(=O)N[C@@H](CCC(=O)O)C(N)=O)NC(=O)[C@H](CC(=O)O)NC(=O)[C@H](CC(C)C)NC(=O)[C@H](CC(=O)O)NC1=O)C(C)C (Ac-IVELE[R5]DLD[R5]LKDEKE-NH2; staple (Z) 6-10) ; hemolysis at 100 µM observed: 0.3
